Target: AHR (Homo sapiens, UniProt P35869)
Sequence (P35869 11-848): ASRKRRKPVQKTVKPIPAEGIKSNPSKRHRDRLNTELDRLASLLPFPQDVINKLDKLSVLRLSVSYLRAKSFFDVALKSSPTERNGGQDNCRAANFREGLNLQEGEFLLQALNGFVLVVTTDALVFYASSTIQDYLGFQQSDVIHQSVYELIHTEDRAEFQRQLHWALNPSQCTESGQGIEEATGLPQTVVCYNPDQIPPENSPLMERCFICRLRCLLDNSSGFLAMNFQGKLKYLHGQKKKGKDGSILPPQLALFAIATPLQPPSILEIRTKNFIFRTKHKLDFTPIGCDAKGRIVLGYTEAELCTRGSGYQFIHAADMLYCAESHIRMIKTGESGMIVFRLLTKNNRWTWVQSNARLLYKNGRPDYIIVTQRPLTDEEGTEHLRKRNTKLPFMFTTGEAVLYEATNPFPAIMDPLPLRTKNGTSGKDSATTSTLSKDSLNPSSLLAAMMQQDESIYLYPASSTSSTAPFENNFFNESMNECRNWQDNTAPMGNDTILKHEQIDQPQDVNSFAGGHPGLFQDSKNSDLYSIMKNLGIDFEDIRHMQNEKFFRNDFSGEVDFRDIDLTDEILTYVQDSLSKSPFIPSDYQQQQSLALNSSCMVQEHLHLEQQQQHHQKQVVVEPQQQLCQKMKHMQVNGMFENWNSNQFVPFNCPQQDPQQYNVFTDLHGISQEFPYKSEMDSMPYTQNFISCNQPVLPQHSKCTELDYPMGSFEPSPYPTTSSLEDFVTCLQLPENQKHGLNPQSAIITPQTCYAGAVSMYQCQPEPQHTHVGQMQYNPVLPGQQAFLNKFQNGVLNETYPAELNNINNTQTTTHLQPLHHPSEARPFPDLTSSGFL
Assay: In vitro assay 2: agonism in human cell line (transactivation assay, U87 cells, DRE firefly luciferase reporter)
Type: cell-based
Design: host or cells: U87 glioblastoma cells, stably transfected with DRE firefly luciferase and renilla reporter constructs
Settings: no kynurenic acid, 20 hours, read-out: Assay 2: AHR-luc Hum Agonism IC50
pIC50: −log10 of the molar value.
experimental_endpoint: pIC50

compound | result
O=C(NC[C@H](O)C(F)(F)F)c1cc(-c2ccc(Cl)cc2)nn(-c2ccnnc2)c1=O | < 4.70
O=C(N[C@H](CO)C(F)(F)F)c1cc(-c2ccc(C(F)F)cc2)nn(-c2cccnc2)c1=O | < 4.70
COCC(O)CNC(=O)c1cc(-c2ccc(Cl)cc2)nn(-c2cnn(C)c2)c1=O (centres unmarked) [Example 24] | < 4.70
O=C(N[C@H]1CCC[C@@H]1O)c1cc(-c2ccc(C(F)(F)F)cc2)nn(-c2cccnc2)c1=O | < 4.70
C[C@H](CO)NC(=O)c1cc(-c2ccc(Cl)cc2)nn(-c2cncnc2)c1=O | < 4.70
